# TARGET UNDER TEST: BCL-XL (Homo sapiens)
# Construct: BCL-XL degradation results in MOLT-4 cells for compounds of the invention; endogenous in cells; host or cells: MOLT-4
# Sequence (Q07817 whole entry): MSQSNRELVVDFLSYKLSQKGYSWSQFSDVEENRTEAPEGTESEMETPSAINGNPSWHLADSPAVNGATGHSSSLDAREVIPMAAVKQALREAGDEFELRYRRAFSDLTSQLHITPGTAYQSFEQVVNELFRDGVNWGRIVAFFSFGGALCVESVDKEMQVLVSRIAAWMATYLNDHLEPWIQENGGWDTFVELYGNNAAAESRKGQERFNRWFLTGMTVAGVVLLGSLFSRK
# RUN DESCRIPTION: BCL-XL degradation assay in MOLT-4 cells (ELISA, 6 h)
# Format: cell-based
# COND: read-out: Bcl-xL ELISA in MOLT-4 degradation 6 h: External Abs-DC50
Below, each entry is listed with its recorded DC50.
ENDPOINT: DC50

Cc1ncsc1-c1ccc([C@H](C)NC(=O)[C@@H]2C[C@@H](O)CN2C(=O)[C@@H](NC(=O)CCCCCN(C)CCCNc2ccc(S(=O)(=O)NC(=O)c3ccc(N4CCN(CC5=C(c6ccc(Cl)cc6)CC(C)(C)CC5)CC4)cc3Oc3cnc4[nH]ccc4c3)cc2S(=O)(=O)C(F)(F)F)C(C)(C)C)cc1 [I-69]
500 to 1000 nM
Cc1ncsc1-c1ccc([C@H](C)NC(=O)[C@@H]2C[C@@H](O)CN2C(=O)[C@@H](NC(=O)CCCCCCCC(=O)Nc2ccc(-c3ccc(Cl)cc3)c(CN3CCN(c4ccc(C(=O)NS(=O)(=O)c5ccc(N[C@H](CCN(C)C)CSc6ccccc6)c([N+](=O)[O-])c5)cc4)CC3)c2)C(C)(C)C)cc1 [I-10]
100 to 500 nM
Cc1ncsc1-c1ccc([C@H](C)NC(=O)[C@@H]2C[C@@H](O)CN2C(=O)[C@@H](NC(=O)CCCCCCC(=O)N2CCN(Cc3ccc(-c4ccc(Cl)cc4)c([C@H](O)C4CCN(c5ccc(C(=O)NS(=O)(=O)c6ccc(N[C@H](CCN(C)CCO)CSc7ccccc7)c(S(=O)(=O)C(F)(F)F)c6)cc5)CC4)c3)CC2)C(C)(C)C)cc1 [I-25]
10 to 100 nM
Cc1ncsc1-c1ccc([C@H](C)NC(=O)[C@@H]2C[C@@H](O)CN2C(=O)[C@@H](NC(=O)CCCCCC(=O)N2CCN(CCCNc3ccc(S(=O)(=O)NC(=O)c4ccc(N5CCN(CC6=C(c7ccc(Cl)cc7)CC(C)(C)CC6)CC5Oc5cnc6[nH]ccc6c5)cc4)cc3S(=O)(=O)C(F)(F)F)CC2)C(C)(C)C)cc1 (stereo partly shown) [I-133]
500 to 1000 nM
Cc1ncsc1-c1ccc([C@H](C)NC(=O)[C@@H]2C[C@@H](O)CN2C(=O)[C@@H](NC(=O)CCCCC(=O)N2CCN(CC[C@H](CSc3ccccc3)Nc3ccc(S(=O)(=O)NC(=O)c4ccc(N5CCC([C@@H](O)c6ccccc6-c6ccc(Cl)cc6)CC5)cc4)cc3S(=O)(=O)C(F)(F)F)CC2)C(C)(C)C)cc1 [I-109]
10 to 100 nM
Cc1ncsc1-c1ccc([C@H](C)NC(=O)[C@@H]2C[C@@H](O)CN2C(=O)[C@@H](NC(=O)CCCCCCC(=O)N2CCN(Cc3ccc(-c4ccc(Cl)cc4)c(CN4CCN(c5ccc(C(=O)NS(=O)(=O)c6ccc(N[C@H](CCN(C)C)CSc7ccccc7)c([N+](=O)[O-])c6)cc5)CC4)c3)CC2)C(C)(C)C)cc1 [I-5]
10 to 100 nM
Cc1ncsc1-c1ccc([C@H](C)NC(=O)[C@@H]2C[C@@H](O)CN2C(=O)[C@@H](NC(=O)CCCCCC(=O)N2CCN(CC[C@H](CSc3ccccc3)Nc3ccc(S(=O)(=O)NC(=O)c4ccc(N5CC6CC6C5)cc4)cc3S(=O)(=O)C(F)(F)F)CC2)C(C)(C)C)cc1 (stereo partly shown) [I-37]
500 to 1000 nM
